biological target: 5-hydroxytryptamine receptor 6 (Homo sapiens); assay: Displacement of [3H]LSD from human 5HT6 receptor expressed in HEK293 cells
Sequence (P50406 whole entry): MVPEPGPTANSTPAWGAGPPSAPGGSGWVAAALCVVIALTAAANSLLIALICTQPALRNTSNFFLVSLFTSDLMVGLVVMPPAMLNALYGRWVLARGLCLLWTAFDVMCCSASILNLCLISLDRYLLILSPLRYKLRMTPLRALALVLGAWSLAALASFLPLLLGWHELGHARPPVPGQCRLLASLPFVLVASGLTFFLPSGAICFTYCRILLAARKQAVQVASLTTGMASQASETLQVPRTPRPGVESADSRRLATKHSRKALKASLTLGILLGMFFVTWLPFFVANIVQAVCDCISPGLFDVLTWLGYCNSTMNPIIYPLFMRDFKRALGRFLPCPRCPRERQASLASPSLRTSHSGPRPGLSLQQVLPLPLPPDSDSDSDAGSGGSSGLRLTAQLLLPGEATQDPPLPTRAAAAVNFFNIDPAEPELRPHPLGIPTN
The entries below are paired with their reported log10(IC50).
Record value = log10 of IC50 given in µM.

Past entries and their recorded results:
{"line notation": "CC(C)N(c1cccc(N2CCN(C)CC2)c1)S(=O)(=O)c1ccccc1", "parameter": "log10(IC50)", "value observed": -0.19}
{"line notation": "CC(C)N(c1ccccc1N1CCN(C)CC1)S(=O)(=O)c1ccc2ccccc2c1", "parameter": "log10(IC50)", "value observed": 0.34}
{"line notation": "CN1CCN(c2cccc(N(CC3CC3)S(=O)(=O)c3ccc4ccccc4c3)c2)CC1", "parameter": "log10(IC50)", "value observed": -2.22}
{"line notation": "CCN(c1cccc(N2CCN(C)CC2)c1)S(=O)(=O)c1ccc2ccccc2c1", "parameter": "log10(IC50)", "value observed": -2.52}
{"line notation": "CC(C)N(c1cccc(I)c1)S(=O)(=O)c1ccc2ccccc2c1", "parameter": "log10(IC50)", "value observed": 0.07}

Asked: In one line, give reported log10(IC50) of the entry "CC(C)N(c1ccc(N2CCN(C)CC2)cc1)S(=O)(=O)c1ccc2ccccc2c1" .
Given back: -1.57

Asked: In one line, give reported log10(IC50) of the entry "CC(C)N(c1ccc(Oc2cccnc2)nc1)S(=O)(=O)c1ccc2ccccc2c1" .
Given back: -0.37

Asked: In one line, give reported log10(IC50) of the entry "CC(C)N(c1cccc(N2CCN(C)CC2)c1)S(=O)(=O)c1cccc2ccccc12" .
Given back: -1.80

Asked: In one line, give reported log10(IC50) of the entry "CN1CCN(c2cccc(N(Cc3ccccc3)S(=O)(=O)c3ccc4ccccc4c3)c2)CC1" .
Given back: -2.52

Asked: In one line, give reported log10(IC50) of the entry "CC(C)N(c1cccc(N2CCN(C)CC2)c1)S(=O)(=O)c1ccc2ccccc2c1" .
Given back: -2.52

* * *

Biological target: 5-hydroxytryptamine receptor 2C (Homo sapiens, UniProt P28335)
Sequence (P28335 whole entry): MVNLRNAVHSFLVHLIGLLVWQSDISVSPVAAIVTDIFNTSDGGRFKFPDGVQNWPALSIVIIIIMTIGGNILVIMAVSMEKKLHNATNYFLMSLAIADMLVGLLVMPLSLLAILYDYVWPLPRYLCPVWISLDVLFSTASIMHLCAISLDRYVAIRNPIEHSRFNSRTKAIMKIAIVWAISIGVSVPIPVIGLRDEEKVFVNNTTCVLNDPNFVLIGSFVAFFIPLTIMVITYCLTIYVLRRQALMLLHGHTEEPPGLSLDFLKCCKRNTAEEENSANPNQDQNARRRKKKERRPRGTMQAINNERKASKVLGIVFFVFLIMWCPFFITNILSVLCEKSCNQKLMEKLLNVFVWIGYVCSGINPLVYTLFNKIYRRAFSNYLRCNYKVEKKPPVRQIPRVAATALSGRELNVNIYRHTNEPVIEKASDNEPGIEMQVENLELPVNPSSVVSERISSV
Assay: Displacement of [3H]mesulergine from human 5HT2C expressed in CHOKI cells
parameter: IC50 (nM)
Report the figure in nM without appending any unit label.

Asked: In one line, give reported IC50 of the entry "CCN(c1cccc(N2CCN(C)CC2)c1)S(=O)(=O)c1ccc2ccccc2c1" .
Given back: 16

Asked: In one line, give reported IC50 of the entry "CN1CCN(c2cccc(NS(=O)(=O)c3ccc4ccccc4c3)c2)CC1" .
Given back: 5150

Asked: In one line, give reported IC50 of the entry "CC(C)N(c1ccccc1N1CCN(C)CC1)S(=O)(=O)c1ccc2ccccc2c1" .
Given back: 4640

Asked: In one line, give reported IC50 of the entry "CN1CCN(c2cccc(N(CC3CC3)S(=O)(=O)c3ccc4ccccc4c3)c2)CC1" .
Given back: 6

Asked: In one line, give reported IC50 of the entry CCC(C)N(c1cccc(N2CCN(C)CC2)c1)S(=O)(=O)c1ccc2ccccc2c1 (stereo unspecified) .
Given back: 168

* * *

biological target: UniProtKB P35462; test: Displacement of [3H]spiperone from human dopamine D3 receptor expressed in CHOKI cells
Sequence (P35462 whole entry): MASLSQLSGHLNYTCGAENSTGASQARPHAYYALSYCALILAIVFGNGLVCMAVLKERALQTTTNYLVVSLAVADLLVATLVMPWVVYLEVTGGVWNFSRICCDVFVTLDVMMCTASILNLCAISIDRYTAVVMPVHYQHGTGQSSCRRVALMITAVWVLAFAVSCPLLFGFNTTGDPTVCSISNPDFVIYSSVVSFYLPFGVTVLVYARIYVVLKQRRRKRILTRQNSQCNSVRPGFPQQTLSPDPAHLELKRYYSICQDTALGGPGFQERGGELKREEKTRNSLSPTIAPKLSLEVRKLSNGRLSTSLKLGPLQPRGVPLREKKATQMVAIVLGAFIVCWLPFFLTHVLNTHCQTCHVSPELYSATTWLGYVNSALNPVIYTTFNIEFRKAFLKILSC
# if measured IC50 < 2000 nM: TRUE  # else: FALSE

Asked: For "CN1CCN(c2cccc(N(C)S(=O)(=O)c3ccc4ccccc4c3)c2)CC1" , is the recorded IC50 below the cut-off of 2000 nM?
Given back: FALSE

Asked: For "CC(C)N(c1cccc(N2CCN(C)CC2)c1)S(=O)(=O)c1ccccc1" , is the recorded IC50 below the cut-off of 2000 nM?
Given back: FALSE

Asked: For "CN1CCN(c2cccc(NS(=O)(=O)c3ccc4ccccc4c3)c2)CC1" , is the recorded IC50 below the cut-off of 2000 nM?
Given back: FALSE

Asked: For "CN1CCN(c2cccc(N(CC3CC3)S(=O)(=O)c3ccc4ccccc4c3)c2)CC1" , is the recorded IC50 below the cut-off of 2000 nM?
Given back: TRUE

Asked: For "CC(C)N(c1cccc(N2CCN(C)CC2)c1)S(=O)(=O)c1ccc2ccccc2c1" , is the recorded IC50 below the cut-off of 2000 nM?
Given back: TRUE

Asked: For "CCCN(c1cccc(N2CCN(C)CC2)c1)S(=O)(=O)c1ccc2ccccc2c1" , is the recorded IC50 below the cut-off of 2000 nM?
Given back: FALSE
